So I've got a bunch of compounds here, and I need their pIC50 values.
Biological target: UniProt P28482
Sequence (P28482 whole entry): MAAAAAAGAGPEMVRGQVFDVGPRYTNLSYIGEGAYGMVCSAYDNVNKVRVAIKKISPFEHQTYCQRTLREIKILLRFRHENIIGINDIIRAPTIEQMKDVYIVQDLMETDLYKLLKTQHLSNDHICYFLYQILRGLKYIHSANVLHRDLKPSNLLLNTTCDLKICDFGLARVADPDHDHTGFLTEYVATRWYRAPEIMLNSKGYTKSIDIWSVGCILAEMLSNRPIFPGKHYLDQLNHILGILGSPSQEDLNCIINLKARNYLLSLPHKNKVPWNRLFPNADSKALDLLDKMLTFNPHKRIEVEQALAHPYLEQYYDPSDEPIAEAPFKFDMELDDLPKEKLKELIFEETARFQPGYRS
Assay: Active Human ERK2 (hERK2) Activity Assay (IMAP-FP)
Format: biochemical
Conditions: phosphorylated active hERK2, 30 μM ATP; average; read-out: ERK 2 Human average IC50
In simple prose, pIC50 is minus the logarithm base ten of a concentration in moles per litre.

Q. Quick one: pIC50 for Cc1cc(-c2n[nH]c3cc(NC(=O)NC4CCOc5ccccc54)ncc23)ccn1 (stereo not shown) [Example 532] ?
A. 8.45

Q. I am curious: what pIC50 value has been reported for Cc1cc(-c2n[nH]c3cc(NC(=O)NC4CCCC(Oc5cccc(F)c5)C4)ncc23)ccn1 (stereo not shown) [Example 659] ?
A. 7.29

Q. Value lookup for pIC50; key = COCCNC(=O)Nc1cc2[nH]nc(-c3ccc4cn(C)nc4c3)c2cn1 [Example 625]
A. 7.87

Q. What pIC50 value was documented for this compound, COc1ccccc1CNC(=O)Nc1cc2[nH]nc(-c3ccnc(C)c3)c2cn1 [Example 529] ?
A. 9.53

These entries and their values trace back to patent US9023865B2.
